Target of assay: BaF3-TEL-LYN (Homo sapiens)
Construct: fused on or other part: P41212 (Transcription factor ETV6)
Sequence (P07948 whole entry, change not shown, the tested form may be a part): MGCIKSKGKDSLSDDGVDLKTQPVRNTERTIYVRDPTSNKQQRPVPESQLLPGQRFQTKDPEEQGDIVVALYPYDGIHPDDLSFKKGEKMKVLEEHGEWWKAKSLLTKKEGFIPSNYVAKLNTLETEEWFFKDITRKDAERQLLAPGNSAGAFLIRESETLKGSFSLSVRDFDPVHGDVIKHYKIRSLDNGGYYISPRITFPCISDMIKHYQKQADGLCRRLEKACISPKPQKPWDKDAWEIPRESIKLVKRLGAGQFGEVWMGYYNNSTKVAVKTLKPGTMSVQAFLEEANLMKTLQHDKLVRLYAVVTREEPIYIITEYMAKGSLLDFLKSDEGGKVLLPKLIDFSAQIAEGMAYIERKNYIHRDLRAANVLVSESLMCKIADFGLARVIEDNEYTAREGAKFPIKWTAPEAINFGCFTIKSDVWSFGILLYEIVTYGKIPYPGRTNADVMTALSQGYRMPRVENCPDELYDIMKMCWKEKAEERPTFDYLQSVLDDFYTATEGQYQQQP
Test method notes: Antiproliferative activity, kinase-dependent Ba/F3 cells (MTT/MTS)
Format: cell-based, murine
Assay context: 48 hours, cell viability, read-out: tel-LYN IC50
Readout label: log10(GI50) (log10 of the value in µM)
Record value = log10 of GI50 given in µM.

1. Cc1ccc(NC(=O)c2cccc(C(F)(F)F)c2)cc1N1Cc2cnc(NCCN(C)C)nc2N(C)C1 [IA-2] :: 0.12
2. CNc1ncc2c(n1)N(C)CN(c1cc(NC(=O)c3cccc(C(F)(F)F)c3)ccc1C)C2 [IA-3] :: 0.61
3. Cc1ccc(N)cc1N1Cc2cnc(Nc3ccc(N4CCOCC4)nc3)nc2N(C)C1 [ID-6] :: 0.36

If you can, please state the reported log10(GI50) value of Cc1ccc(NC(=O)c2cccc(C(F)(F)F)c2)cc1N1Cc2cnc(Nc3ccc(N4CCOCC4)nc3)nc2N(C)C1 [IA-15] .
-0.58

Try this molecule too: Cc1ccc(Nc2ncc3c(n2)N(C)CN(c2cc(NC(=O)c4cccc(C(F)(F)F)c4)ccc2C)C3)cn1 [IA-9]
-0.65

---

Target of assay: BaF3-TEL-LYN (Homo sapiens)
Construct: fused on or other part: P41212 (Transcription factor ETV6)
Test method notes: Antiproliferative activity, kinase-dependent Ba/F3 cells (MTT/MTS)
Assay type: cell-based, murine
Assay context: 48 hours, cell viability, read-out: tel-LYN IC50
Readout label: GI50 (nM)
Report the figure in nM without appending any unit label.

Quick check: GI50 of COc1cc(C(=O)N2CCN(C)CC2)ccc1Nc1ncc2c(n1)N(C)CN(c1cc(NC(=O)c3cccc(C(F)(F)F)c3)ccc1C)C2 [IA-16] ?
2000

Same again, this time with Cc1ccc(Nc2ncc3c(n2)N(C2CC2)CN(c2cc(NC(=O)c4cccc(C(F)(F)F)c4)ccc2C)C3)cn1 [IB-2]
1200

---

Target of assay: BaF3-BCR/ABL (Homo sapiens)
Construct: fused on or other part: P11274 (Breakpoint cluster region protein)
Sequence (P00519 whole entry, change not shown, the tested form may be a part): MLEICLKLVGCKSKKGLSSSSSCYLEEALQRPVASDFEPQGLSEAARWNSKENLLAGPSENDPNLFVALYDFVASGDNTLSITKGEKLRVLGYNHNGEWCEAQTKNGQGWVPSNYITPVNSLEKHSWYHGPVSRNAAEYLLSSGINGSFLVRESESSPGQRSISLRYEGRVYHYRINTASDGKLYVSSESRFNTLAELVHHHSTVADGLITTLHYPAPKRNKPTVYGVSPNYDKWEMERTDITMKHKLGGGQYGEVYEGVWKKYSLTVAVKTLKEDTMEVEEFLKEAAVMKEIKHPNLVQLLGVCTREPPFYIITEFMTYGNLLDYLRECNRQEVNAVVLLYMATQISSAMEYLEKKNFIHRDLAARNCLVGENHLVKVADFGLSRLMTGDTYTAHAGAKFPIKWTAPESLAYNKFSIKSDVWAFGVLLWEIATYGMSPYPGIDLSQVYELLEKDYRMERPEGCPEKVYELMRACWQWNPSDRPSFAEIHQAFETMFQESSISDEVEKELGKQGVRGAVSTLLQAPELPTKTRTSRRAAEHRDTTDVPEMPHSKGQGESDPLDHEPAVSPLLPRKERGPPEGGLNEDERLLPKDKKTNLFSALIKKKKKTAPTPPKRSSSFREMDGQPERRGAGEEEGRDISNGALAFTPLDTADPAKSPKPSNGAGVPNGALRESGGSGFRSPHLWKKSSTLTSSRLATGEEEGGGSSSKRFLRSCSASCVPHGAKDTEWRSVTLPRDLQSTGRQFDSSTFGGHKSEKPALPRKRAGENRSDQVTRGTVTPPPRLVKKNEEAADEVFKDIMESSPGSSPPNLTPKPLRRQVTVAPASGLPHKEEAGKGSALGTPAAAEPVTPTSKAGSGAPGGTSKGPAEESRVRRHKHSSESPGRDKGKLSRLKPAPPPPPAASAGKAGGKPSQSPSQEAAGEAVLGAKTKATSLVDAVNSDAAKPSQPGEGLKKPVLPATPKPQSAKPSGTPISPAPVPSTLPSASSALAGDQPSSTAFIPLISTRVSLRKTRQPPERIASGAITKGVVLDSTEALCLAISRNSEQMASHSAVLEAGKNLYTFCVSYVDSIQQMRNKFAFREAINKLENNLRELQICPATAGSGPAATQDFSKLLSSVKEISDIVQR
Test method notes: Antiproliferative activity, kinase-dependent Ba/F3 cells (MTT/MTS)
Assay type: cell-based, murine
Assay context: 48 hours, cell viability, read-out: BCR/ABL IC50
Readout label: GI50 (nM)
Field: numeric (nM). Do not append units.

Consider the worked cases shown below.
1) Cc1ccc(C(F)(F)F)cc1N1Cc2cnc(Nc3ccc(N4CCOCC4)nc3)nc2N(C)C1 :: 1630
2) Cc1ccc(NC(=O)c2cccc(C(F)(F)F)c2)cc1N1Cc2cnc(N[C@H](C)CO)nc2N(C)C1 :: 665

Entry "Cc1ccc(Nc2ncc3c(n2)N(C)CN(c2cc(NC(=O)c4cccc(C(F)(F)F)c4)ccc2C)C3)cn1" , system BaF3-BCR/ABL (Homo sapiens): what GI50 was measured?
5

"Cc1ccc(NC(=O)c2cccc(C(F)(F)F)c2)cc1N1Cc2cnc(NC3CC3)nc2N(C)C1" ?
956

Now try "Cc1ccc(NC(=O)c2cccc(C(F)(F)F)c2)cc1N1Cc2cnc(Nc3cnn(C)c3)nc2N(C)C1" .
0.251

---

Target of assay: BaF3-TEL-HCK (Homo sapiens, UniProt P08631)
Construct: fused on or other part: P41212 (Transcription factor ETV6)
Sequence (P08631 whole entry, change not shown, the tested form may be a part): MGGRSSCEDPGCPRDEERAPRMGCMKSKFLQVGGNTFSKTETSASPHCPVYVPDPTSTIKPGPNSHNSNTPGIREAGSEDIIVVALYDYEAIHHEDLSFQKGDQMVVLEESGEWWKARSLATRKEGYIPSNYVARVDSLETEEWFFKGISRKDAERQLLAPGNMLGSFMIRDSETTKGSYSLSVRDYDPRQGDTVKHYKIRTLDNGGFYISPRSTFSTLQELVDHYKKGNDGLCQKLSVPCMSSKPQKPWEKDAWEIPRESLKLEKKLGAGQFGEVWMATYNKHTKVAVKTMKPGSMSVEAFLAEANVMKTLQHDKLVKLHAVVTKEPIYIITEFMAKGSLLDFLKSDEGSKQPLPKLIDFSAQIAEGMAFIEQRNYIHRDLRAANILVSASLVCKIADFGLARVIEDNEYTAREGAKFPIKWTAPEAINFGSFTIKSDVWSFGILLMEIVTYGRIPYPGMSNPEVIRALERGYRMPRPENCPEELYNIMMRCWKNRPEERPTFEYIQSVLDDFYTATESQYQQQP
Test method notes: Antiproliferative activity, kinase-dependent Ba/F3 cells (MTT/MTS)
Format: cell-based, murine
Assay context: 48 hours, cell viability, read-out: Tel-HCK IC50
Decision: GI50 beneath 0.7 µM gives label 1; GI50 meeting or exceeding 0.7 µM gives label 0.

1) COc1cc(C(=O)N2CCN(C)CC2)ccc1Nc1ncc2c(n1)N(C)CN(c1cc(NC(=O)c3cccc(C(F)(F)F)c3)ccc1C)C2 :: label 0
2) Cc1ccc(Nc2ncc3c(n2)N(C2CC2)CN(c2cc(NC(=O)c4cccc(C(F)(F)F)c4)ccc2C)C3)cn1 :: label 0
3) CCN(CC)c1ccc(Nc2ncc3c(n2)N(C)CN(c2cc(NC(=O)c4cccc(C(F)(F)F)c4)ccc2C)C3)cn1 :: label 0
4) Cc1cc(Nc2ncc3c(n2)N(C)CN(c2cc(NC(=O)c4cccc(C(F)(F)F)c4)ccc2C)C3)n(C)n1 :: label 0
5) Cc1ccc(Nc2ncc3c(n2)N(C)CN(c2cc(NC(=O)c4cccc(C(F)(F)F)c4)ccc2C)C3)cn1 :: label 1

Read the next record carefully.
Does the reported GI50 of the following compound sit strictly below 0.7 µM? "CCN1CN(c2cc(NC(=O)c3cccc(C(F)(F)F)c3)ccc2C)Cc2cnc(Nc3ccc(C)nc3)nc21"
label 1
